Tested on: U-251
Experiment: NCI tumour cell line growth inhibition, 48 h
Activity calls are given as the source filed them. Cut-off read from the data, not from the text of the source: active = GI50 up to about 1.1 µM and inactive = higher.
Thanks in advance; please answer with one of these: active, inactive

| Compound | Answer Label |
| --- | --- |
| CCOC(=O)NC(Nc1ccc(S(=O)(=O)Nc2ncccn2)cc1)(C(=O)OCC)C(F)(F)F (centres undefined) | inactive |
| CC(=O)Nc1ccc2cc3c(nc2n1)c1cccnc1n3S(=O)(=O)c1ccccc1 | inactive |
| CC(C)(C)OC(=O)n1c(-c2ccccc2F)cc(=O)c2cc3c(cc21)OCO3 | active |
| N#CC(=N)c1ncn(-c2ccccc2N)c1N | inactive |
| COc1cc(C=C(c2ccc(N(C)C)cc2)c2ccc(N(C)C)cc2)c2ccccc2c1OC | inactive |

Problem: Assay result, entry CC1CC[C@@]2(OC1)OC1C[C@H]3[C@@H]4CCC5CC(O)CC[C@]5(C)[C@H]4C/C(=N\N(C)C)[C@]3(C)C1[C@@H]2C (some centres undefined) — outcome?
Solution: inactive

Problem: Assay result, entry COc1ccc2c(c1)nc1n2C(c2c(F)cccc2Cl)SC1 (centres undefined) — outcome?
Solution: inactive

Problem: Assay result, entry Cc1ccc(NC(c2ccccc2)P(=O)(c2ccccc2)c2ccccc2)cc1 (centres undefined) — outcome?
Solution: inactive

Problem: Assay result, entry Cc1cc(C)c(S(=O)(=O)N2CCCN(S(=O)(=O)c3c(C)cc(C)cc3C)OCCCON(S(=O)(=O)c3c(C)cc(C)cc3C)CCCN(S(=O)(=O)c3c(C)cc(C)cc3C)OCCCO2)c(C)c1 — outcome?
Solution: inactive
